Reference for the values: patent US20170305857A1

ASSAYED SYSTEM: recombinant His-tagged cytoplasmic domains of TRKA receptor (NTRK1, PV3144, aa 441-796) (Homo sapiens, UniProt P04629)
Construct: aa 441-796; His
Sequence (P04629 441-796): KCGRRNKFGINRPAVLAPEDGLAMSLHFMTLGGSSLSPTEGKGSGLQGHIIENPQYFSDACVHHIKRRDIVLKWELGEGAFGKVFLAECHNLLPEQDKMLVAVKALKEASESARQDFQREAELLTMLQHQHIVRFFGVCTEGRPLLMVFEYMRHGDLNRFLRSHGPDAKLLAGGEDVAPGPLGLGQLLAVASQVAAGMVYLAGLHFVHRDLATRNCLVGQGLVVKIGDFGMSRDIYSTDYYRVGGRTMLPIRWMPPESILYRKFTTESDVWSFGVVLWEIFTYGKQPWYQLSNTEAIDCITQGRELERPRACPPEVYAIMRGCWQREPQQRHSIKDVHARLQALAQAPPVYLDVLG
ASSAY PROTOCOL: Isolated TRK enzyme assay (HTRF KinEASE-TK, PV3144 TrkA enzyme assay)
RUN CONDITIONS: 4 nM enzyme, 40 uM ATP, 35 min, arithmetic mean where more than one reading
MEASURED PARAMETER: IC50 (nM)

[a] Cc1n[nH]c(C)c1-c1cnc(OC2CCN(C(=O)Cc3ccc(OC(F)(F)F)cc3)CC2)c(C(N)=O)c1 [Example 59]
[b] Cn1cc(-c2ccc(O[C@@H]3CCN(C(=O)Cc4ccc(OC(F)(F)F)cc4)C[C@@H]3F)c(C(N)=O)c2)cn1 [Example 74]
[c] CS(=O)(=O)Cn1cc(-c2cnc(O[C@@H]3CCN(C(=O)Cc4ccc(OC5CC5)cc4)C[C@@H]3F)c(C(N)=O)c2)cn1 [Example 28]
Arrange these compounds by their IC50, starting with the largest number. API: response body holds the labels in the requested order.
a, c, b
(a: 10 nM, c: 2.3 nM, b: 0.9 nM)

[P] NC(=O)c1cc(-c2c[nH]c(C3(F)COC3)n2)ccc1OC1CCN(C(=O)Cc2ccc(OC(F)(F)F)cc2)CC1 [Example 117]
[Q] NC(=O)c1cc(-c2cnn(C3CS(=O)(=O)C3)c2)cnc1O[C@H]1CCN(C(=O)Cc2ccc(OC(F)(F)F)cc2)C[C@H]1F [Example 22]
Looking at P and Q , which one comes out lower in IC50 terms? Indicate your choice by writing its label.
Q
(Q: 1.2 nM, P: 10.8 nM)

[a] NC(=O)c1cc(-c2cn(C[C@@H](O)CO)cn2)ccc1OC1CCN(C(=O)Cc2ccc(OC(F)(F)F)cc2)CC1 [Example 126]
[b] NC(=O)c1cc(-c2cn[nH]c2)cnc1O[C@H]1CCN(C(=O)Cc2ccc(OC3CC3)cn2)C[C@@H]1F [Example 80]
Between a and b , whose recorded IC50 is greater? Indicate your choice by writing its label.
b
(b: 9.9 nM, a: 2.9 nM)

###

ASSAYED SYSTEM: recombinant His-tagged cytoplasmic domains of TRKA receptor (NTRK1, PV3144, aa 441-796) (Homo sapiens)
Construct: aa 441-796; His
ASSAY PROTOCOL: Isolated TRK enzyme assay (HTRF KinEASE-TK, PV3144 TrkA enzyme assay)
RUN CONDITIONS: 4 nM enzyme, 40 uM ATP, 35 min, arithmetic mean where more than one reading
pIC50: −log10 of the molar value.
MEASURED PARAMETER: pIC50

Example compounds with recorded pIC50:
>>> reported_measurement("NC(=O)c1cc(-c2cn(CCO)cn2)cnc1OC1CCN(C(=O)Cc2ccc(OC(F)(F)F)cc2)CC1 [Example 116]")
8.09
>>> reported_measurement("Cc1cc(OC2CCN(C(=O)Cc3ccc(OC(F)(F)F)cc3)CC2)c(C(N)=O)cc1-c1cn(C)cn1 [Example 170]")
7.75
>>> reported_measurement("CNC(=O)Cn1cnc(-c2ccc(OC3CCN(C(=O)Cc4ccc(OC(F)(F)F)cc4)CC3)c(C(N)=O)c2)c1 [Example 128]")
8.21
>>> reported_measurement("C[C@H](O)Cn1cc(-c2ccc(OC3CCN(C(=O)Cc4ccc(OC(F)(F)F)cc4)CC3)c(C(N)=O)c2)cn1 [Example 134]")
8.60
>>> reported_measurement("Cn1cnc(-c2ccc(O[C@@H]3CCN(C(=O)Cc4ccc(OC(F)(F)F)cc4)C[C@@H]3F)c(C(N)=O)c2)c1 (racemic) [Example 52]")
8.35

[a] NC(=O)c1cc(-c2ccc(N)nc2)ccc1OC1CCN(C(=O)Cc2ccc(OC(F)(F)F)cc2)CC1 [Example 104]
[b] Cn1cc(-c2ccc(OC3CCN(C(=O)Nc4ccc(OC(F)(F)F)cc4F)CC3)c(C(N)=O)c2)cn1 [Example 140]
Between a and b , whose recorded pIC50 is greater? Indicate your choice by writing its label.
a
(a: 8.40, b: 7.99)
